- MEASURED ON: Progesterone receptor (Homo sapiens) (UniProt P06401)
- Sequence (P06401 whole entry, looked up): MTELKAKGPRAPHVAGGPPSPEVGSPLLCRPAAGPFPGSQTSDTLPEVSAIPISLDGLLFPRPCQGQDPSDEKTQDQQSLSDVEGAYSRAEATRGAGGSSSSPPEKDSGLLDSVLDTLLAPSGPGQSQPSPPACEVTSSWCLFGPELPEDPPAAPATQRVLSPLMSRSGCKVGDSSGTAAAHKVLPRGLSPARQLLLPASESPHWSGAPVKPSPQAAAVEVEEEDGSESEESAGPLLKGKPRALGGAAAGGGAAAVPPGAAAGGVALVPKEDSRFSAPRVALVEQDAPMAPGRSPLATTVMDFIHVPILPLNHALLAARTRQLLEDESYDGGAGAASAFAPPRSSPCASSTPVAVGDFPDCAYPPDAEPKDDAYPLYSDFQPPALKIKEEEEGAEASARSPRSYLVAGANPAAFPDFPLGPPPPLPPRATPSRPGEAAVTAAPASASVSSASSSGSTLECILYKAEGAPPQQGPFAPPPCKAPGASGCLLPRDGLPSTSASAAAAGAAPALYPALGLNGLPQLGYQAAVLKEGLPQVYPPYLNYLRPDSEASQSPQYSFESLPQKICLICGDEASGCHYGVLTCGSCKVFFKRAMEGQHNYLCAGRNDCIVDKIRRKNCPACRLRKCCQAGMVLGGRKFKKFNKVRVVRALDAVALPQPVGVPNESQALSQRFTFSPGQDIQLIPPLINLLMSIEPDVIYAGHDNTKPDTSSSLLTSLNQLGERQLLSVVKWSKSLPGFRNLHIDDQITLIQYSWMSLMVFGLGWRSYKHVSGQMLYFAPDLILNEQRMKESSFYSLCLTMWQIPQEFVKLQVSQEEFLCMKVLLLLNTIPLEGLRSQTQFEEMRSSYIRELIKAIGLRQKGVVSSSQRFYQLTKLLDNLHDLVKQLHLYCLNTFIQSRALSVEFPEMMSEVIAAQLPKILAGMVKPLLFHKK
- TEST DESCRIPTION: qHTS assay to identify small molecule antagonists of the progesterone receptor (PR) signaling pathway (AID 1346795)
- CONDITION NOTES: PR-UAS-bla HEK293T, beta-lactamase FRET ratio, 16 h; series mostly up to 92.4 µM
- Description: National Center for Advancing Translational Sciences [NCATS] NIH Chemical Genomics Center [NCGC] U.S. Environmental Protection Agency [EPA] National Institutes of Environmental Health Sciences [NIEHS] National Toxicology Program [NTP] U.S. Food and Drug Administration [FDA] Progesterone receptor (PR), a nuclear hormone receptor, plays an important role in development, metabolic homeostasis and reproduction. […]
Results filed as inconclusive are left out. Active and inactive are the calls of the source. Calls come from the whole dose curve; as a rule, active = well fitted inhibition curve with a large enough effect in the signal ratio in the repeat runs (not every such curve was filed as active); inconclusive = weak or mixed curves; inactive = flat fitted curve, though single readings scatter; the % refers to the signal ratio.
Please reply with one of these outcomes: YES (active), NO (inactive)

Solved entries (count: 5):
Query :: Entry CCCCCCCN : call = ?
Result :: NO

Query :: Request: CN(C)CCN(Cc1ccc(Cl)cc1)c1ccccn1
Result :: NO

Query :: Request: CCCCCCCC/C=C\CCCCCCCC(=O)OCC
Result :: NO

Query :: Request: C=C(C)C(=O)OCCOCC
Result :: NO

Query :: Request: CCCn1cnc2c1c(=O)n(CCCCC(C)=O)c(=O)n2C
Result :: NO

More entries:
Query :: Entry CCC(=O)O[C@]1(C(=O)CCl)[C@@H](C)C[C@H]2[C@@H]3CCC4=CC(=O)C=C[C@]4(C)[C@@]3(F)[C@@H](O)C[C@@]21C : call = ?
Result :: NO

Query :: Request: CCC(CC)Nc1ccc(C)c(C)c1
Result :: NO

Query :: Request: c1cc(CCCc2ccncc2)ccn1
Result :: YES

Query :: Request: O=C1CCCCCCCCCCCC(=O)OCCO1
Result :: NO

Query :: Request: OC(C#CCN1CCCC1)(c1ccccc1)c1ccccc1
Result :: NO

Query :: Request: C[C@@H](c1ncncc1F)C(O)(Cn1cncn1)c1ccc(F)cc1F (stereo not given in full)
Result :: NO

Query :: Request: CCN(CC)CCNc1ccc(CNC=O)c2sc3ccc(OC)cc3c(=O)c12
Result :: YES

Query :: Request: CCC(Cl)CCC(Cl)C(Cl)CC(Cl)C(Cl)C(Cl)CCl (stereo not given)
Result :: NO

Query :: Request: CCOC(=O)c1cccnc1
Result :: NO

----------
- TEST DESCRIPTION: qHTS RealTime-Glo MT Cell Viability Assay in HEK293 cells - 24 hour (AID 1224886); note: nearly all actives have a fitted effect of over 50% in size
- CONDITION NOTES: RealTime-Glo luminescence; series mostly up to 76.8 µM
Records with an inconclusive call do not appear. The source made the active and inactive calls. Calls follow the shape of the dose curve; as a rule, active = well fitted cell-killing curve with a large enough effect in the repeat runs; inconclusive = weak or mixed curves, or effect the other way; inactive = flat fitted curve, though single readings scatter.
Please reply with one of these outcomes: 1 (yes) = active, 0 (no) = inactive

Query :: Entry N=c1ccn2c(n1)O[C@H]1[C@H](O)[C@@H](CO)O[C@H]12 : call = ?
Result :: 0 (no)

Query :: Request: CCC(C)(C)CC
Result :: 0 (no)

Query :: Request: COc1cc2nc(N3CCN(C(=O)C4COc5ccccc5O4)CC3)nc(N)c2cc1OC (stereo unspecified)
Result :: 1 (yes)

Query :: Request: C=CC(=O)OCCOCCOC(=O)C=C
Result :: 1 (yes)

Query :: Request: COc1ccc2cccc(CCNC(C)=O)c2c1
Result :: 0 (no)

More entries:
Query :: Entry C=CC(=O)OCCOc1ccccc1 : call = ?
Result :: 0 (no)

Query :: Request: C[C@@H]1C[C@H]2O[C@@]3(O[C@@H]2C(C)(C)O)[C@H](O)[C@@]2(C)[C@@H]4CC[C@H]5C(C)(C)[C@@H](O[C@@H]6OC[C@@H](O)[C@H](O)[C@H]6O)CC[C@@]56C[C@@]46CC[C@]2(C)[C@@H]13
Result :: 0 (no)

Query :: Request: CC(C)O.CC(C)O.CCOC(=O)/C=C(\C)O.CCOC(=O)/C=C(\C)O.[Ti]
Result :: 0 (no)

Query :: Request: O=C1CCCCCCCCCCCC(=O)OCCO1
Result :: 0 (no)

Query :: Request: CCC(C)c1cc(C(C)(C)C)c(O)c(C(C)(C)C)c1 (stereo unspecified)
Result :: 0 (no)

Query :: Request: Nc1ccc(S(=O)(=O)Nc2ccccc2)cc1
Result :: 0 (no)

----------
- TEST DESCRIPTION: qHTS assay to identify small molecule antagonists of the thyroid receptor (TR) signaling pathway (AID 743065); note: nearly all actives have a fitted effect of over 55% in size
- CONDITION NOTES: GH3.TRE-Luc, T3-stimulated luciferase inhibition, 23.5 h; series mostly up to 70.3 µM
Inconclusive results are not listed. Activity calls are given as the source filed them. The call rests on the fitted dose curve; in most records, active means well fitted inhibition curve with a large enough effect in the repeat runs; inconclusive means weak or mixed curves; inactive means no such curve, though single readings can be large or run the other way.
Please reply with one of these outcomes: active, inactive

Solved entries (count: 10):
Query :: Entry COc1ccc(C(=O)Nc2nc3ccccc3c(NCc3ccccc3)c2C#N)cc1 : call = ?
Result :: inactive

Query :: Request: CCCOC(C(=O)OC1CCN(C)CC1)(c1ccccc1)c1ccccc1
Result :: active

Query :: Request: O=C(NCCO[N+](=O)[O-])c1cccnc1
Result :: inactive

Query :: Request: C=CCOC(=O)CCC1CCCCC1
Result :: inactive

Query :: Request: c1ccc(C(O[C@H]2CCCN(CCc3ccc4c(c3)OCO4)C2)c2ccccc2)cc1
Result :: active

Query :: Request: O=C(O)c1ccc(-n2nc(-c3ccccc3O)nc2-c2ccccc2O)cc1
Result :: active

Query :: Request: C=CC(=O)OCCOc1ccccc1
Result :: active

Query :: Request: O=C(OCCCCCCOC(=O)c1ccccc1)c1ccccc1
Result :: inactive

Query :: Request: CCCCCCCCCc1ccc(OCCOCCO)cc1
Result :: active

Query :: Request: CCCCCCCCCCCC(=O)OC[C@@H](O)[C@H]1OC[C@H](OCCO)[C@H]1OCCO
Result :: inactive

Then there is this compound:
Query :: Entry C[C@H](CCC(=O)O)[C@H]1CC[C@H]2[C@@H]3CC[C@@H]4C[C@H](O)CC[C@]4(C)[C@H]3C[C@H](O)[C@]12C : call = ?
Result :: active

----------
- TEST DESCRIPTION: Caspase-3/7 induction in CHO-K1 cells by small molecules, qHTS cell viability counter screen (AID 1346979); note: nearly all actives have a fitted effect of over 35% in size
- CONDITION NOTES: CellTiter-Fluor fluorescence, 17 h; series mostly up to 92.4 µM
Inconclusive results are not listed. Activity calls are given as the source filed them. Calls come from the whole dose curve; as a rule, active = well fitted cell-killing curve with a large enough effect in the repeat runs; inconclusive = weak or mixed curves, or effect the other way; inactive = no such curve, though single readings can be large or run the other way.
Please reply with one of these outcomes: active, inactive

Solved entries (count: 8):
Query :: Entry O=P(O)(OCc1ccccc1)OCc1ccccc1 : call = ?
Result :: inactive

Query :: Request: O=C1CCCCCCCCCCCC(=O)OCCO1
Result :: inactive

Query :: Request: CCC(Cl)CCC(Cl)C(Cl)CC(Cl)C(Cl)C(Cl)CCl (stereo not given)
Result :: inactive

Query :: Request: CCCCCCOC(=O)NC(=N)c1ccc(NCc2nc3cc(C(=O)N(CCC(=O)OCC)c4ccccn4)ccc3n2C)cc1
Result :: active

Query :: Request: CCCCC(CC)COC(=O)CCCCCCCCC(=O)OCC(CC)CCCC (stereo not given)
Result :: inactive

Query :: Request: Cc1ncc(CO)c(C=O)c1O
Result :: inactive

Query :: Request: O=C(OCCCCCCOC(=O)c1ccccc1)c1ccccc1
Result :: inactive

Query :: Request: COS(=O)(=O)C(F)(F)F
Result :: inactive

More entries:
Query :: Entry CC1(c2ccccc2)OC(C(=O)O)=CC1=O (stereo not given) : call = ?
Result :: inactive

Query :: Request: Cc1cccc(C)c1NC(=O)CN(CC(=O)O)CC(=O)O
Result :: inactive

----------
- MEASURED ON: Thyrotropin receptor (Homo sapiens) (UniProt P16473)
- Sequence (P16473 whole entry, looked up): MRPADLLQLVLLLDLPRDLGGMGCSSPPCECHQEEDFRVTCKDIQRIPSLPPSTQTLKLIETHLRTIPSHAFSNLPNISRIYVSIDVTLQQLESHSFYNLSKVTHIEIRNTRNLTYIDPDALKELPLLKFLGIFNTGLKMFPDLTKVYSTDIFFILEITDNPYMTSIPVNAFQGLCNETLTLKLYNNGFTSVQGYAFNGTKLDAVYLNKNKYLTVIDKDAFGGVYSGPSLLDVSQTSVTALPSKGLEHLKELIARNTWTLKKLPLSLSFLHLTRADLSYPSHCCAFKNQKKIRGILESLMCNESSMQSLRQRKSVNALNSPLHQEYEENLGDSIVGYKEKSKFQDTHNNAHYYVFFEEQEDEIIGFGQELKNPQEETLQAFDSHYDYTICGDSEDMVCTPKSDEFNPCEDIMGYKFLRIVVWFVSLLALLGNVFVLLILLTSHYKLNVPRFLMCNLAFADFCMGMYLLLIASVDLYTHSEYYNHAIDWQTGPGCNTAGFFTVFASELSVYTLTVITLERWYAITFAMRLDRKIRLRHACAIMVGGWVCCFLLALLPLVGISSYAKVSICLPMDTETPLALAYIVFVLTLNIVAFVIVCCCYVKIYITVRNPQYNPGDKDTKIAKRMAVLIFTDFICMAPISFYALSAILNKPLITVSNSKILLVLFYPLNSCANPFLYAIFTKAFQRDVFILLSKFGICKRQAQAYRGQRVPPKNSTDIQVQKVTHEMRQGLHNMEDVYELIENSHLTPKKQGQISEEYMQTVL
- TEST DESCRIPTION: qHTS assay to identify small molecule agonists of the thyroid stimulating hormone receptor (TSHR) signaling pathway (AID 1224843); note: % is set by controls: 0 for no effect and ±100 for the full control effect; nearly all actives have a fitted effect of over 45% in size
- CONDITION NOTES: TSHR-HEK293 cells, cAMP HTRF, agonist mode, 30 min; series mostly up to 92.4 µM
Inconclusive results are not listed. Active and inactive are the calls of the source. The call rests on the fitted dose curve.
ASSAY READOUT: activation

Query :: Value lookup for activation; key = COc1ccnc(CS(=O)c2nc3ccc(OC(F)F)cc3[nH]2)c1OC (configuration not stated)
Result :: inactive

Query :: Request: ClCCOCCOCCCl
Result :: inactive

Query :: Request: Cc1c(N)cccc1[N+](=O)[O-]
Result :: inactive

Query :: Request: O=P(O)(OCc1ccccc1)OCc1ccccc1
Result :: inactive

Query :: Request: CCC(=O)O[C@]1(C(=O)CCl)[C@@H](C)C[C@H]2[C@@H]3CCC4=CC(=O)C=C[C@]4(C)[C@@]3(F)[C@@H](O)C[C@@]21C
Result :: inactive

Query :: Request: C[N+]1(C)CCC(OC(=O)C(O)(c2ccccc2)C2CCCC2)C1 (configuration not stated)
Result :: inactive

More entries:
Query :: Value lookup for activation; key = NCc1ccccc1Sc1ccccc1CO
Result :: inactive

Query :: Request: CCCCCCCC#N
Result :: inactive

Query :: Request: CC(CSC(=O)c1ccccc1)C(=O)N1C[C@@H](Sc2ccccc2)C[C@H]1C(=O)O (some centres not stated)
Result :: -0.691% [at 19 µM] (inactive)

Query :: Request: Nc1ccc([N+](=O)[O-])c(C(F)(F)F)c1
Result :: inactive

Query :: Request: CC1OC(=O)C(C)OC1=O (configuration not stated)
Result :: inactive

Query :: Request: NC(N)=NCCC[C@H](N)C(=O)O
Result :: -0.151% [at 8.39 µM] (inactive)
